System Name: CCR5-SNAP labeled with Alexa-488 (CCR5-SNAP-488) (human)
Method Notes: fluorescence cross-correlation spectroscopy
Recorded Endpoint: Ki (nM)

(a) 5P12-RANTES, non-labeled (from UniProt P13501 24-91) (ligand)
(b) 6P4-RANTES, non-labeled (from UniProt P13501 24-91) (ligand)
### Prompt Of a and b , whose reported Ki is numerically smaller? Label of pick, please.
### Response a
(a: 0.14 nM, b: 3.5 nM)

Each recorded value in this set is attributed to paper doi:10.1101/575795.
